Source listed as PubChem BioAssay AID1159580.

- assay.comment: chemical genetic growth profiling, strain panel (AID 1159580);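 note: tested at 20 µM; growth read once vehicle control cultures reached saturation at 30 °C; 1 = growth at the plate median or of vehicle wells; lower values mean less growth of the strain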
- condition.info: S. cerevisiae deletion strains, growth OD, locus YDR162C, strain NBP2, hits give low values
The whole screen tested about 5,500 compounds, of which about 2,000 (36%) were called active. Another 18% or so got no clear call; they are omitted. The list shows a part of the results.
readout: normalized growth
Respond with the number and no other words.

O=c1cccc2n1CC1CC2CN2CCCC[C@@H]12 (some centres not stated)    0.987
CC(=O)Oc1ccc2c(c1)CCC1C2CC[C@]2(C)C(=O)CCC12 (some centres not stated)    0.998
C1N2CN3CN1CN(C2)C3    0.954
CC(=O)OCC(=O)[C@@]1(O)CCC2C3CCC4=CC(=O)C=CC4(C)C3[C@@H](O)C[C@@]21C (some centres not stated)    1.01
C[C@]12CCC3c4ccc(OC(=O)c5ccccc5)cc4CCC3C1CCC2=O (some centres not stated)    1.01
C[C@]12CCC3c4ccc(OC(=O)CCC(=O)O)cc4CCC3C1CCC2=O (some centres not stated)    0.785

Request the reported normalized growth associated with CC12CCC3C(=CCc4cc(O)ccc43)C1CCC2=O (configuration not stated) 0.515
